Target: PCP1 sites (Rattus norvegicus)
Construct: membrane preparations originating from anterior cerebrum homogenates of rats; from tissue; host or cells: rat anterior cerebrum (forebrain/cortex) membranes
Test: [3H]TCP displacement, cortex membranes, 1-site model
Assay type: binding
Conditions: Hill number of the cortex displacement curve
Measured cortex 1 site nH by item
# answer = number (no unit)

Recorded results for 6 compounds are shown here.
[Q] For the compound shown here, c1csc(C2(N3CCCCC3)CCSCC2)c1 , give the reported cortex 1 site nH.
[A] 1.05

[Q] For the compound shown here, CC1CCCN(C2(c3cccs3)CCCCC2)C1 (single isomer, unassigned) [Ex 22 (+)] , give the reported cortex 1 site nH.
[A] 1.04

[Q] For the compound shown here, c1coc(C2(N3CCCCC3)CCSCC2)c1 , give the reported cortex 1 site nH.
[A] 0.87

[Q] For the compound shown here, CC1CCCN(C2(c3cccs3)CCCCC2)C1 (single isomer, unassigned) [Ex 22 (−)] , give the reported cortex 1 site nH.
[A] 1.08

[Q] For the compound shown here, c1csc(C2(N3CCCCC3)CCOCC2)c1 , give the reported cortex 1 site nH.
[A] 0.98

[Q] For the compound shown here, CC1CSCCC1(c1cccs1)N1CCCCC1 (single isomer, unassigned) [Ex 1 (minority)] , give the reported cortex 1 site nH.
[A] 0.89

Further cases:
[Q] For the compound shown here, Cc1ccc(C2(N3CCCCC3)CCSCC2)s1 , give the reported cortex 1 site nH.
[A] 0.97

###

Measured pIC50 by item
Biological target: PCP3 sites
Assay: [3H]TCP displacement, cerebellum membranes, 2-site model, PCP3
Format: binding
Settings: [3H]TCP 2.5 nM, rat cerebellum, two-site non-linear regression
When answering, recall that pIC50 equals minus log10 of the concentration in mol/L, and write that number alone.

Recorded results for 3 compounds are shown here.
[Q] # query: pIC50 | item CC1CCCN(C2(c3cccs3)CCCCC2)C1 (single isomer, unassigned) [Ex 22 (+)] | system: PCP3 sites
[A] 6.09

[Q] # query: pIC50 | item CC1CCCN(C2(c3cccs3)CCCCC2)C1 (racemic) [Ex 22 (±)] | system: PCP3 sites
[A] 5.84

[Q] # query: pIC50 | item c1csc(C2(N3CCCCC3)CCSCC2)c1 | system: PCP3 sites
[A] 8.07

Further cases:
[Q] # query: pIC50 | item OCC1CCCN(C2(c3cccs3)CCCCC2)C1 (stereo not drawn) | system: PCP3 sites
[A] 7.91

[Q] # query: pIC50 | item c1csc(C2(N3CCCCC3)CCCSC2)c1 (stereo not drawn) | system: PCP3 sites
[A] 8.10

[Q] # query: pIC50 | item c1coc(C2(N3CCCCC3)CCSCC2)c1 | system: PCP3 sites
[A] 7.86

Values from patent US6342511B1
